- Tested on: DU-145
- assay comment: Anticancer activity against human DU145 cells assessed as cell growth at 10^-5 M after 48 hrs by SRB assay
- Type: functional
- details: DU-145, 48 h, read-out: Activity
readout: growth at 10 µM (%)
Please reply with the bare figure in % and do not write the unit itself.

Worked cases, answers included:
# structure, test target, growth at 10 µM / %
measured = [
    ("O=C(NCCNc1nccc(-c2c(-c3cccc(O)c3)nc3sccn23)n1)c1ccc(N2CCOCC2)c(C(F)(F)F)c1", "DU-145", 94.9),
    ("O=C(NCCNc1nccc(-c2c(-c3cccc(O)c3)nc3sccn23)n1)Nc1cc(C(F)(F)F)cc(C(F)(F)F)c1", "DU-145", 97.1),
    ("COc1cccc(-c2nc3sccn3c2-c2ccnc(NCCNC(=O)c3ccccc3)n2)c1", "DU-145", 100),
    ("O=C(NCCNc1nccc(-c2c(-c3cccc(O)c3)nc3sccn23)n1)Nc1ccccc1", "DU-145", 110),
    ("O=C(NCCNc1nccc(-c2c(-c3cccc(O)c3)nc3sccn23)n1)c1ccccc1", "DU-145", 90.5),
]

Quick check: growth at 10 µM of O=C(NCCNc1nccc(-c2c(-c3cccc(O)c3)nc3sccn23)n1)Nc1cccc(C(F)(F)F)c1 ?
89

So what does the record say about growth at 10 µM for O=C(NCCNc1nccc(-c2c(-c3cccc(O)c3)nc3sccn23)n1)c1cc(N2CCOCC2)cc(C(F)(F)F)c1 ?
110

Looking for the measured growth at 10 µM of COc1cccc(-c2nc3sccn3c2-c2ccnc(NCCNC(=O)Nc3ccccc3)n2)c1 , can you help?
102

Would you kindly share the measured growth at 10 µM for COc1cccc(-c2nc3sccn3c2-c2ccnc(NCCNC(=O)c3cccc(C(F)(F)F)c3)n2)c1 ?
67.7

# growth at 10 µM lookup, item COc1cccc(-c2nc3sccn3c2-c2ccnc(NCCNC(=O)Nc3cccc(C(F)(F)F)c3)n2)c1
79.8

----------
- Test system: SK-MEL-5
- assay comment: Anticancer activity against human SK-MEL-5 cells after 48 hrs by SRB assay
- Format: functional
- details: SK-MEL-5, 48 h, read-out: LC50 (the source's name)
readout: CC50 (µM)
Respond numerically; units are µM and should not be typed.

# structure, CC50 [µM]
records = [
    ("O=C(NCCNc1nccc(-c2c(-c3cccc(O)c3)nc3sccn23)n1)c1ccccc1", 43.4),
    ("O=C(NCCNc1nccc(-c2c(-c3cccc(O)c3)nc3sccn23)n1)Nc1cccc(C(F)(F)F)c1", 28.9),
]

Now examine the next entry.
Param item = COc1cccc(-c2nc3sccn3c2-c2ccnc(NCCNC(=O)Nc3cccc(C(F)(F)F)c3)n2)c1 ; retrieve measured CC50.
40.6

----------
# reported CC50; entries follow
- Tested on: COLO 205
- assay comment: Anticancer activity against human COLO205 cells after 48 hrs by SRB assay
- Assay type: functional
- details: COLO 205, 48 h, read-out: LC50 (the source's name)
Give your result in µM as a bare value.

// worked examples, CC50 included
# structure, readout, measurement unit, result
rows = [
    ("O=C(NCCNc1nccc(-c2c(-c3cccc(O)c3)nc3sccn23)n1)c1ccccc1O", "CC50", "µM", 66.1),
    ("COc1cccc(-c2nc3sccn3c2-c2ccnc(NCCNC(=O)Nc3cccc(C(F)(F)F)c3)n2)c1", "CC50", "µM", 58),
]

Note: attention shifts to another entry.
Consider the compound shown here: O=C(NCCNc1nccc(-c2c(-c3cccc(O)c3)nc3sccn23)n1)Nc1cccc(C(F)(F)F)c1 What is its recorded CC50?
59.5
